- System: S. Typhi PhoP-promoter GFP reporter, fluorescence, 4 h
- assayRemarks: PhoP regulon inhibitor project modified counter assay, GFP fluorescence readout, dose response (AID 1985)
quantity: pIC50
// scale note: pIC50 = -log10(conc_M); give the bare number

The examples below pair each entry with its known result.
COc1cccc(F)c1C(C[N+](=O)[O-])c1c(N)n(C)c(=O)n(C)c1=O (stereo unspecified): 3.85
Cc1cc(Br)ccc1OCCCCNCCO: 4.21
C[C@H]1c2cccc(O)c2C(O)=C2C(=O)C3(O)C(O)=C(C(N)=O)C(=O)[C@@H](N(C)C)[C@@H]3[C@@H](O)[C@@H]21 (stereo partly specified): 5.72

[ask] Lab note: need pIC50 for Fc1ccc(Nc2ccnc(Nc3ccc(F)cc3)n2)cc1 on S. Typhi PhoP-promoter GFP reporter, fluorescence, 4 h, anyone have it?
[reply] 4.41

[ask] Requested read-out pIC50, target or system S. Typhi PhoP-promoter GFP reporter, fluorescence, 4 h, entry CCCCCc1ccc(OCCC[n+]2ccccc2)c(CCCCC)c1
[reply] 4.08

[ask] Any idea what pIC50 came out for CCCCCCCCCCOC(=O)Cn1c(COc2cccc(OC)c2)[n+](C)c2ccccc21 on S. Typhi PhoP-promoter GFP reporter, fluorescence, 4 h?
[reply] 4.74

[ask] Provide the documented pIC50 with S. Typhi PhoP-promoter GFP reporter, fluorescence, 4 h as the system for Cc1ccc(C(=O)NNC(=S)NC(=O)c2ccccc2)cc1
[reply] 4.20
